- TEST_SYSTEM: T1, GHRH receptor (thymus cells, 3- and 14-month old rats) (Rattus norvegicus, UniProt Q02644)
- T1 chain: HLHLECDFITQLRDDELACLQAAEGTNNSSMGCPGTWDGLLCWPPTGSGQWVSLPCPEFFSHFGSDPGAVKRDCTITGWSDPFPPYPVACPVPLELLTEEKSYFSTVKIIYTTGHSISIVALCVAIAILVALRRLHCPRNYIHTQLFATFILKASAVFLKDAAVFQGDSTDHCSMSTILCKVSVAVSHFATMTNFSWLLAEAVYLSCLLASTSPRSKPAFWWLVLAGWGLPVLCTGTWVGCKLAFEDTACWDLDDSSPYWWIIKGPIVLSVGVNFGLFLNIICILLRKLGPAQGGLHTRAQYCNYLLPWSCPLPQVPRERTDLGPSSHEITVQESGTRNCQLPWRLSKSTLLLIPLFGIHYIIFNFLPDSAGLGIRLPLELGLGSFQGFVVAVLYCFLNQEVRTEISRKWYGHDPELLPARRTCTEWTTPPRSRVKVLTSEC
- EXPERIMENTAL_PROTOCOL: homologous competitive radioligand binding
TEST_READOUT: Kd (nM)
Numbers only, in nM.

Query :: Assign Kd to the following record: MPLWVFFFVILTLSNSSHCSPPPPLTLRM [GHRH 1-29]
Result :: 1

Measured values drawn from paper PMC3736351 for this set.
